Data credit: the supplement of paper PMC8149375

system: SN12C; experiment: GI50, drug alone; higher = less potent; conditions: treatment: drug alone; 5 days
reportedProperty: GI50, drug alone

CN1CCN(c2cccc(Nc3nc4c(-c5ccc(S(C)(=O)=O)cc5)cccn4n3)c2)CC1; > 10 µM
COc1ccc(COc2cc3oc(=O)c4cc(C(C)O)ccc4c3cc2OC)cc1 (configuration not stated) [Palomid 529]; > 10 µM
C[C@@H]1COC(Nc2ccc3ncnc(Nc4ccc(OCc5nccs5)c(Cl)c4)c3c2)=N1; > 10 µM
Nc1nccc(Oc2ccc(NC(=O)c3c[nH]cc(-c4ccc(F)cc4)c3=O)cc2F)c1Cl; > 10 µM
CCN(CCO)CCCOc1ccc2c(Nc3cc(CC(=O)Nc4cccc(F)c4)n[nH]3)ncnc2c1 [Barasertib (AZD1152-HQPA)]; > 10 µM
CN(C[C@@H]1COCCO1)S(=O)(=O)Nc1ccc2ccc3ncc(-c4cnn(C)c4)cc3c(=O)c2c1 [MK-2461]; > 10 µM
COc1cc(Nc2ncc(F)c(Nc3ccc4c(n3)N(COP(=O)([O-])[O-])C(=O)C(C)(C)O4)n2)cc(OC)c1OC.[Na+].[Na+]; 3.32 µM
Cc1cnc(Nc2ccc(OCCN3CCCC3)cc2)nc1Nc1cccc(S(=O)(=O)NC(C)(C)C)c1; 2.31 µM
CC[C@@H]1C(=O)N(C)c2cnc(Nc3ccc(C(=O)NC4CCN(C)CC4)cc3OC)nc2N1C1CCCC1 [BI 2536]; 0.0549 µM
C#Cc1cccc(Nc2ncnc3cc(OCCOC)c(OCCO)cc23)c1; > 10 µM

# input compound: CCN1CCN(c2ccc(Nc3cc(N(C)C(=O)Nc4c(Cl)c(OC)cc(OC)c4Cl)ncn3)cc2)CC1 [BGJ398 (NVP-BGJ398)] ; wanted: its GI50, drug alone
6.98 µM

Could you share which GI50, drug alone value was measured for COC(=O)Nc1ccc(-c2nc(N3CCOCC3)c3cnn(C4CCN(C(=O)OC)CC4)c3n2)cc1 [WYE-354] ?
1.89 µM

----------
tested on: 786-O; test: AUC of dose-response viability curve, drug alone (arbitrary (AUC of normalised viability)); higher = less growth inhibition; settings: treatment: drug alone; 5 days
Reported AUC of dose-response viability curve values for a set of molecules
Reply with the value as a number alone.

CC(C)NC[C@@H](C(=O)N1CCN(c2ncnc3c2[C@H](C)C[C@H]3O)CC1)c1ccc(Cl)cc1; 1.88
O=C1Nc2ccccc2/C1=C1/Nc2ccccc2C1=O; 2.32
O=C1NC(=O)/C(=C/c2ccc(-c3ccc(F)cc3O)o2)S1; 2.68
COc1ccc(-c2cc3c(C)nc(N)nc3n([C@H]3CC[C@H](OCCO)CC3)c2=O)cn1; 1.76
O=C(Nc1cc(C(F)(F)F)cc(C(F)(F)F)c1)c1cc(Cl)ccc1O; 2.03

Quick check: AUC of dose-response viability curve on 786-O, item Oc1cc(O)cc(/C=C/c2ccc(O)c(O)c2)c1 ?
2.54

Identify the measured AUC of dose-response viability curve of COc1ccc2c(c1OC)N=C(NC(=O)c1cccnc1)N1CCN=C21 for 786-O.
2.46

Fill in the recorded AUC of dose-response viability curve for this molecule, with 786-O as test system: Nc1nc(NCCNc2ncc(-n3ccnc3)c(-c3ccc(Cl)cc3Cl)n2)ccc1[N+](=O)[O-]
2.36

Lab request: please report AUC of dose-response viability curve under test system 786-O for C=CC(=O)Nc1cccc(Sc2nc(Nc3ccc(N4CCN(C)CC4)cc3)ncc2Cl)c1
2.46
